# tgt: Peroxisome proliferator-activated receptor delta (Homo sapiens)
# assay_text: qHTS assay to identify small molecule antagonists of the peroxisome proliferator-activated receptor delta (PPARd) signaling pathway (AID 743215);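 note: cells stimulated with agonist L165041 at 300 nM final during compound exposure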
# test_settings: HEK293H PPARd-UAS-bla, beta-lactamase FRET ratio, antagonist, 17 h; series mostly up to 62 µM
Results filed as inconclusive are left out. Active and inactive are the calls of the source. Calls come from the whole dose curve; as a rule, active = well fitted inhibition curve with a large enough effect in the signal ratio in the repeat runs (not every such curve was filed as active); inconclusive = weak or mixed curves, or effect the other way; inactive = no such curve, though single readings can be large or run the other way; the % refers to the signal ratio.
Outcomes: 1 (yes) (active), 0 (no) (inactive)

{"compound": "N#CSCc1ccccc1", "group_label": "0 (no)"}
{"compound": "CC(C)=CCN1CC[C@@]2(C)c3cc(O)ccc3C[C@@H]1[C@@H]2C", "group_label": "0 (no)"}
{"compound": "CN1C2CCC(C)(C)C1CC(OC(=O)C(O)(c1cccs1)c1cccs1)C2 (stereo unspecified)", "group_label": "0 (no)"}
{"compound": "O=C(O)CCCCCCNC1c2ccccc2CCc2ccccc21", "group_label": "0 (no)"}
{"compound": "S=C=NCCc1ccccc1", "group_label": "0 (no)"}
{"compound": "ClC1(Cl)C2(Cl)C3(Cl)C4(Cl)C(Cl)(Cl)C5(Cl)C3(Cl)C1(Cl)C5(Cl)C24Cl (stereo unspecified)", "group_label": "0 (no)"}
{"compound": "CNC(=O)O/N=C(\\C)C(C)S(C)(=O)=O (stereo unspecified)", "group_label": "0 (no)"}
{"compound": "COc1c2c(cc3c1OCO3)CCN(C)C2", "group_label": "0 (no)"}
{"compound": "CCCCON=O", "group_label": "0 (no)"}
{"compound": "Cc1cccc(Cc2cnc[nH]2)c1C", "group_label": "0 (no)"}
{"compound": "CC(Cc1ccccc1)N(C)Cc1ccco1 (stereo unspecified)", "group_label": "0 (no)"}
{"compound": "Cc1ccc(C)c2ccccc12", "group_label": "0 (no)"}
{"compound": "COCCC#N", "group_label": "0 (no)"}
{"compound": "BrCCCBr", "group_label": "0 (no)"}
{"compound": "C[N+]1(C)[C@@H]2CC[C@H]1CC(OC(=O)C(CO)c1ccccc1)C2 (stereo partly specified)", "group_label": "0 (no)"}
{"compound": "Nc1ccccc1-c1ccccc1", "group_label": "0 (no)"}
{"compound": "CNC(C)(C)Cc1ccccc1", "group_label": "0 (no)"}
{"compound": "CCCCC(CC)COC(=O)OOC(C)(C)C (stereo unspecified)", "group_label": "0 (no)"}
{"compound": "ClC(Cl)C(Cl)(Cl)Cl", "group_label": "0 (no)"}
{"compound": "CCC[CH2][Sn]([CH2]CCC)([O]C(C)=O)[O]C(C)=O", "group_label": "1 (yes)"}
{"compound": "CSC(=O)c1c(C(F)F)nc(C(F)(F)F)c(C(=O)SC)c1CC(C)C", "group_label": "0 (no)"}
{"compound": "COc1cnc(OC)n2nc(NS(=O)(=O)c3c(OCC(F)F)cccc3C(F)(F)F)nc12", "group_label": "0 (no)"}
{"compound": "O=P(Cl)(Cl)Cl", "group_label": "0 (no)"}
{"compound": "O.O.O.O=C([O-])[C@H]([O-])[C@@H]([O-])C(=O)[O-].O=C([O-])[C@H]([O-])[C@@H]([O-])C(=O)[O-].[K+].[K+].[Sb+3].[Sb+3]", "group_label": "1 (yes)"}
{"compound": "CNC(=O)/C=C(\\C)OP(=O)(OC)OC", "group_label": "0 (no)"}
{"compound": "COc1ccc2c3c1O[C@H]1[C@H](O)CC[C@H]4[C@@H](C2)N(C)CC[C@@]341", "group_label": "0 (no)"}
